Molecular target: T1, TNF-R2 (a protein having the amino acid sequence, Accession No. M55994 registered at GENBANK) (UniProt P20333 23-257, limits assumed)
T1 construct: also called TNF receptor with 75 kilo daltons
T1 sequence (looked up): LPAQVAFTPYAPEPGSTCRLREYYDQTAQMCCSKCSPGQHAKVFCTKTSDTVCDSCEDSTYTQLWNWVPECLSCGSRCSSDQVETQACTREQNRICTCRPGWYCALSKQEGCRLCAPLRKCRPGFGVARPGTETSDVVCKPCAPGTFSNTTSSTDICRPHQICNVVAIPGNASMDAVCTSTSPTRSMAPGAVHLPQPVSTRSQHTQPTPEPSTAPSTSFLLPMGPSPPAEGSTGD
Assay: SPR (BIACORE 2000), receptor on sensor tip; grade 2 = 0.5 to 0.1 time that of recombinant TNF-α
PROPERTY LABEL: binding affinity relative to recombinant TNF-α

I am curious: what binding affinity relative to recombinant TNF-α value has been reported for TNF mutant protein of clone No. 27 (ligand, Mutant of lysine-replaced TNF, made in E. coli) VRSSSRTPSDMPVAHVVANPQAEGQLQWLNRRANALLANGVELRDNQLVVPSEGLYLIYSQVLFSGQGCPSTHVLLTHTISRITPAYPRPVNLLSAIRSPCQRETPEGAEANPWYEPIYLGGVFQLEPGDRLSAEINRPDYLDFAESGQVYFGIIAL ?
0.1 to 0.5 fold

Try this binder next: TNF mutant protein of clone No. 34 (ligand, Mutant of lysine-replaced TNF, made in E. coli) VRSSSRTPSDMPVAHVVANPQAEGQLQWLNRRANALLANGVELRDNQLVVPSEGLYLIYSQVLFSGQGCPSTHVLLTHTISRISADYPHPVNLLSAIRSPCQRETPEGAEANPWYEPIYLGGVFQLEPGDRLSAEINRPDYLDFAESGQVYFGIIAL
0.1 to 0.5 fold

Try this binder next: TNF mutant protein of clone No. 32 (ligand, Mutant of lysine-replaced TNF, made in E. coli) VRSSSRTPSDMPVAHVVANPQAEGQLQWLNRRANALLANGVELRDNQLVVPSEGLYLIYSQVLFSGQGCPSTHVLLTHTISRITDRYSSPVNLLSAIRSPCQRETPEGAEANPWYEPIYLGGVFQLEPGDRLSAEINRPDYLDFAESGQVYFGIIAL
0.1 to 0.5 fold
